experiment: in vitro; type: in vitro ADME, mouse; conditions: mouse, serum
compounds and their reported remaining at 20 min
Write down the numeric answer in % and omit the unit.

[[record]]
compound = "C[C@@H](O)[C@H](NC(=O)[C@@H](N)CCCNC(=N)N)C(=O)N[C@@H](Cc1ccc(O)cc1)C(=O)NCCCC[C@H](NC(=O)[C@H](Cc1ccc(O)cc1)NC(=O)[C@@H](NC(=O)[C@@H](N)CCCNC(=N)N)[C@@H](C)O)C(=O)NCCCC[C@H](NC(=O)[C@H](CCCCNC(=O)[C@H](Cc1ccc(O)cc1)NC(=O)[C@@H](NC(=O)[C@@H](N)CCCNC(=N)N)[C@@H](C)O)NC(=O)[C@H](Cc1ccc(O)cc1)NC(=O)[C@@H](NC(=O)[C@@H](N)CCCNC(=N)N)[C@@H](C)O)C(=O)NCC(=O)O [L-PAM]"
endpoint_unit = "%"
value_reported = 31


Consider now this further compound.
Q: Entry under review: C[C@H](O)[C@@H](NC(=O)[C@H](N)CCCNC(=N)N)C(=O)N[C@H](Cc1ccc(O)cc1)C(=O)NCCCC[C@H](NC(=O)[C@@H](Cc1ccc(O)cc1)NC(=O)[C@H](NC(=O)[C@H](N)CCCNC(=N)N)[C@H](C)O)C(=O)NCCCC[C@H](NC(=O)[C@H](CCCCNC(=O)[C@@H](Cc1ccc(O)cc1)NC(=O)[C@H](NC(=O)[C@H](N)CCCNC(=N)N)[C@H](C)O)NC(=O)[C@@H](Cc1ccc(O)cc1)NC(=O)[C@H](NC(=O)[C@H](N)CCCNC(=N)N)[C@H](C)O)C(=O)NCC(=O)O [D-PAM] . Reported remaining at 20 min?
Result: 73

###

assay: in vitro; assay type: in vitro ADME, mouse; details: mouse, serum
Observation type: remaining at 40 min (%)
Write down the numeric answer in % and omit the unit.

[[record]]
structure_smiles = "C[C@@H](O)[C@H](NC(=O)[C@@H](N)CCCNC(=N)N)C(=O)N[C@@H](Cc1ccc(O)cc1)C(=O)NCCCC[C@H](NC(=O)[C@H](Cc1ccc(O)cc1)NC(=O)[C@@H](NC(=O)[C@@H](N)CCCNC(=N)N)[C@@H](C)O)C(=O)NCCCC[C@H](NC(=O)[C@H](CCCCNC(=O)[C@H](Cc1ccc(O)cc1)NC(=O)[C@@H](NC(=O)[C@@H](N)CCCNC(=N)N)[C@@H](C)O)NC(=O)[C@H](Cc1ccc(O)cc1)NC(=O)[C@@H](NC(=O)[C@@H](N)CCCNC(=N)N)[C@@H](C)O)C(=O)NCC(=O)O"
endpoint_unit = "%"
value_reported = 19


Q: Entry under review: C[C@H](O)[C@@H](NC(=O)[C@H](N)CCCNC(=N)N)C(=O)N[C@H](Cc1ccc(O)cc1)C(=O)NCCCC[C@H](NC(=O)[C@@H](Cc1ccc(O)cc1)NC(=O)[C@H](NC(=O)[C@H](N)CCCNC(=N)N)[C@H](C)O)C(=O)NCCCC[C@H](NC(=O)[C@H](CCCCNC(=O)[C@@H](Cc1ccc(O)cc1)NC(=O)[C@H](NC(=O)[C@H](N)CCCNC(=N)N)[C@H](C)O)NC(=O)[C@@H](Cc1ccc(O)cc1)NC(=O)[C@H](NC(=O)[C@H](N)CCCNC(=N)N)[C@H](C)O)C(=O)NCC(=O)O . Reported remaining at 40 min?
Result: 68
